# measurementProtocol: ATG_EGR_CIS: Attagene CIS-FACTORIAL HepG2 Assay for human Early Growth Response 1 (EGR1) (AID 2282938)
# assayConditions: HepG2 Attagene CIS-FACTORIAL EGR reporter mRNA; actives raise or lower the signal
Calls of active or inactive are those of the source. The calls were made as follows: active = hit-call score of the fitted dose curve at least 0.9, where 1 is the maximum; inactive = score below 0.9.
Possible outcomes: Yes for active, No for inactive

compound	labelValue
O=C(Nc1cccc(C(F)(F)F)c1)c1cc(Br)cc(Br)c1O	Yes
CCCCCCOC(=O)C(C)CC (centres undefined)	No
Cc1ccc(C(C)c2ccc(C)c(C)c2)cc1C	No
CC=C1CC2C=CC1C2 (centres undefined)	No
CN(C)CCCN(C)C	No
CC(=O)[C@H]1[C@H](C#N)C[C@H]2[C@@H]3CC=C4C[C@@H](O)CC[C@]4(C)[C@H]3CC[C@@]21C	No
SCCc1cnccn1	No
O=C(O)CCCCCCCCCC(=O)O	No
COCc1c(C(C)C)nc(C(C)C)c(/C=C/[C@@H](O)C[C@@H](O)CC(=O)O)c1-c1ccc(F)cc1	No
NC(=O)c1ccccc1O	No
O=S(=O)(O)CC(O)CCl (centres undefined)	No
O=C(Cl)c1cc(C(=O)Cl)cc(C(=O)Cl)c1	No
O=C(Oc1ccccc1)c1ccc2ccccc2c1O	Yes
CCCCCCCCCCCSCC(=O)O	Yes
CC(=O)CC(N)=O	No
CCCCC(CC)COC(=O)c1ccccc1 (centres undefined)	No
CCCCCCCCCCCCCCCC[N+](C)(C)CC	No
C#CC1(O)CC[C@H]2[C@@H]3CCC4=CCCC[C@@H]4[C@H]3CC[C@@]21C (some centres undefined)	No
CC(=O)[C@@]1(O)CC[C@H]2[C@@H]3C[C@H](C)C4=CC(=O)C=C[C@]4(C)[C@@]3(F)[C@@H](O)C[C@@]21C	No
Cc1cc(=O)n(-c2ccccc2)n1C	No
Nc1ccc(Oc2ccc(N)c(N)c2)cc1	No
O=c1cc(-c2ccccc2)oc2ccccc12	Yes
O=C1CCCC(=O)O1	No
O=C1CCCCCCCCCCC(=O)OCCO1	No
CC(C)(C)c1ccc(-c2ccc(C(C)(C)C)cc2)cc1	No
CC(=O)c1ccc[nH]1	No
CC(C)COC(=O)C=Cc1ccccc1	No
CCC(Cc1ccccc1)(C(=O)c1ccc(N2CCOCC2)cc1)N(C)C (centres undefined)	Yes
CC[C@H]1OC(=O)[C@H](C)[C@@H](O[C@H]2C[C@@](C)(OC)[C@@H](O)[C@H](C)O2)[C@H](C)[C@@H](O[C@@H]2O[C@H](C)C[C@H](N(C)C)[C@H]2O)[C@](C)(O)C[C@@H](C)C(=NOCOCCOC)[C@H](C)[C@@H](O)[C@]1(C)O	No
Cn1c([N+](=O)[O-])cnc1COC(N)=O	No
CC(C)CCCC(C)CC=O (centres undefined)	No
CC(C)(C)c1n[nH]c(=O)n(N)c1=O	No
CCCCCCCCCCc1ccccc1	No
C[C@]12C=CC(=O)C=C1CC[C@@H]1[C@@H]2[C@@H](O)C[C@@]2(C)[C@H]1CC[C@]2(O)C(=O)CO	No
CCCCCCCC/C=C\CCCCCCCC(=O)O	No
COC(F)(F)C(F)(C(F)(F)F)C(F)(F)F	No
CCOC(=O)[C@H](C)O	No
CCCOCCOCCOCCO	No
N#CCc1ccc(Cl)cc1Cl	No
C[C@]12CCC(=O)C=C1CC[C@@H]1[C@@H]2C(=O)C[C@@]2(C)[C@H]1CC[C@]2(O)C(=O)CO	No
CCCCCC(C)O (centres undefined)	No
Clc1nc2ccccc2s1	No
Cc1ccc(N/N=c2\c(=O)cc/c(=N/Nc3ccc(S(=O)(=O)O)cc3)c2=O)c(C)c1	No
CCOC(F)(F)C(F)(F)C(F)(F)C(F)(F)F	No
